Test system: LXRa:RXRa (NR concentration 270 nM, RXRa partner concentration 90 nM)
assay.notes: PBM binding z-score (relative to random genomic background probes); higher = stronger binding; sequences stand for … in GC…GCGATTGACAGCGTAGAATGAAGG
PBM binding z-score vs 4: at or above is True, below is False.

Is it the case that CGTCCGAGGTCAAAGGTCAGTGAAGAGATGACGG has PBM binding z-score reaching or exceeding 4? True

Determine whether measured PBM binding z-score meets or exceeds 4 for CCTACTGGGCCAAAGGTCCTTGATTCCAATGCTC False

Given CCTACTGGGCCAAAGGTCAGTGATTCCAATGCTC , state whether its PBM binding z-score is at least 4. False

Determine whether this sequence has PBM binding z-score no lower than 4: ATCTCTAGGTAACAAGGTCAGTGAAAGAGAGGAC False

Check the entry ATATGTATGTTAGGGTCATTCAGAAAGTAGGGAA : does PBM binding z-score equal or exceed 4? False

Hi team, for CCTCGGAGGACAACAGGATGTCAGAGCTGCCAGA , is the recorded PBM binding z-score at or above 4? False

Could you tell me if the measured PBM binding z-score of AGAATGAGGTTATACGTAGGTCAGGGAAGAAAGT reaches 4 or more? True

Answer whether PBM binding z-score of CGAACTAGATCAAAGGACAGTGAAAGGCGACGTA is greater than or equal to 4. False

Does the sequence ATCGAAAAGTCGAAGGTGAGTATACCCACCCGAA have recorded PBM binding z-score that is 4 or more? False

Is the recorded value of PBM binding z-score equal to or greater than 4 for this sequence? CAAACCAGGTCACGAAAGGTCAAAGTCGAATGAC True

Would you say TCTAGTTGGTCATGGAGGTCACACACGACGGGTA shows PBM binding z-score at minimum 4? False

Could you tell me if the measured PBM binding z-score of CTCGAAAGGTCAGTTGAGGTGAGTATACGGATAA reaches 4 or more? True

// inclusive: PBM binding z-score at least 4? input: TAGCCTAGCTCATTCAGGGGCCAGTATAGAAAGC False

Is PBM binding z-score at least 4? Consider CGTCTAAGTTCAAGGTAACGTAACAGAAAGCAGC False

Identify whether the reported PBM binding z-score of the following sequence is 4 or greater: CGTCCAAGGTCAATGCTAGGCCAGTGAAAGCATT True

Kindly determine if PBM binding z-score recorded for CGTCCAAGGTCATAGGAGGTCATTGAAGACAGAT is above or exactly 4. True

Is PBM binding z-score for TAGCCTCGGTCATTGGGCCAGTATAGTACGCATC at or above 4? False

State whether the measured PBM binding z-score reaches 4, counting equality as reaching it, for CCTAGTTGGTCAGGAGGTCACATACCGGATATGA False

Evaluate CTAACTAGGTCACAGAGGTCAAAGTCCGTGCGTA : PBM binding z-score at minimum 4? True

hey, is PBM binding z-score for this one >= 4? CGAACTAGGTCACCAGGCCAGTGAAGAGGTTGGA False

Please check the record GCATACGGGTCAAAGGTTATAGCATGAATAGAAT and state if its PBM binding z-score is at or above 4. True

Form field: PBM binding z-score at least 4? Entry: CCTCGGAGGACAACCGGAGGTCAGAGCTGCCAGA False

Check this sequence for PBM binding z-score at or above 4: ATATGTACGTTAGGGTCATTCAGAAAGTAGGGAA False

# bool: PBM binding z-score of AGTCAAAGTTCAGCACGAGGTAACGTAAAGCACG >= 4 True
